test system: humanized Pear1 mice; assay: Peritoneal adhesion model, BhatiaDS score; type: in vivo; set-up: key: grade 0: no adhesion; grade I: adhesive area of the area treated in the caecums of vermiform/total area of the treated area<50%, easy for blunt separation; grade II: above-mentioned area ratio≥50%, easy for blunt dissection; Grade III: Regardless of the size of the adhesive area, as long as the adhesion is difficult to separate, blunt separation can still be performed, but the intestinal wall is obviously damaged after separation; Grade IV: Regardless of the size of the adhesive area, as long as the adhesion is firm and can no longer be bluntly separated, required sharp separation; settings: 0.5 mg/kg intraperitoneal once a week; 4 weeks (n = 8)

molecule	BhatiaDS score
hLF110: humanized anti-human Pear1 antibody; VH SEQ ID NO: 9, VL SEQ ID NO: 23 (antibody, V domains shown) VH: QVQLVQSGAEVKKPGASVKVSCKASGYTFTGYPMNWVRQAPGQNLEWMGVINPYNGGTSYNQKFKGRVTLTVDKSASTAYMELSSLRSEDTAVYYCARGGVRPFAYWGQGTLVTVSS VL: DIQMTQSPSSLSASVGDRVTITCKASEDIYNRLAWYQQKPGNAPKLLISGATSLETGVPSRFSGSGSGNDFTLTISSLQPEDFATYYCQQYWSTPTFGQGTKLEIK	0
